# target: human subtype 5 somatostatin receptor (Homo sapiens, UniProt P35346)
# Sequence (P35346 whole entry): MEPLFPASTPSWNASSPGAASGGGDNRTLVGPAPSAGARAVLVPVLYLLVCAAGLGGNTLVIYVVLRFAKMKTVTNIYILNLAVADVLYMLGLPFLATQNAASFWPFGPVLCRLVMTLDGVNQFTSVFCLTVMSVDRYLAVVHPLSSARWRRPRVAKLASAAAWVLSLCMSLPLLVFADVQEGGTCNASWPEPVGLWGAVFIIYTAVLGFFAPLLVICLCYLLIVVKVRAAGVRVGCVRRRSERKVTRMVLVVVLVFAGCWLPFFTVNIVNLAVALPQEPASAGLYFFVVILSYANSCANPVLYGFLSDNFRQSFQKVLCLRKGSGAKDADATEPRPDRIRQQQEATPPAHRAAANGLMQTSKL
Quick reference for Ki among some compounds
observation.type: Ki (nM)

In [3]: df
Out[3]:
                                   compound                                    target  scale_unit  result_number
0  CCOc1cc(CN2CCC(Nc3cnc4ccccc4c3)CC2)ccc1OC(F)F [Example 99]  human subtype 5 somatostatin receptor (Homo sapiens, UniProt P35346)          nM             62
1  CCOc1cc(CN2CCC(Nc3ccnc(C)c3)CC2)ccc1OCC(C)C [Example 122]  human subtype 5 somatostatin receptor (Homo sapiens, UniProt P35346)          nM            492
